# Target: native mouse MET on living cells (mouse, UniProt P16056 25-1379)
# Test Summary: cell-based or functional assay
Measured Parameter: scatter score 0-4, MLP29, 9.000 nM (score)
The reply should contain only the number, in score.

Observe how each entry below is paired with its result.
State the recorded scatter score 0-4, MLP29, 9.000 nM for this entry: 71C3 chimeric llama-human IgG1 mAb (antibody, V domains shown, llama VH on human IgG1 CH1-CH2-CH3, llama VL on human lambda CL) VH: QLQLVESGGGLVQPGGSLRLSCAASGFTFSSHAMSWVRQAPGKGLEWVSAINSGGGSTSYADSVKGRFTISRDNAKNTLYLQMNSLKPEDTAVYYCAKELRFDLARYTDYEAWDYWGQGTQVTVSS VL: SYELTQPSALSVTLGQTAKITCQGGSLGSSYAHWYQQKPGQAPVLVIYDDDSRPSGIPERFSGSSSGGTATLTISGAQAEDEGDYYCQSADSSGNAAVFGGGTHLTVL
4

71G2 chimeric llama-human IgG1 mAb (antibody, V domains shown, llama VH on human IgG1 CH1-CH2-CH3, llama VL on human lambda CL) VH: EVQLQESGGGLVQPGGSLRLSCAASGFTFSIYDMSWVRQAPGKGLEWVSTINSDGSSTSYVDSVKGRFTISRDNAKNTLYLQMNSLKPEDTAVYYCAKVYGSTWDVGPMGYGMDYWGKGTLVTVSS VL: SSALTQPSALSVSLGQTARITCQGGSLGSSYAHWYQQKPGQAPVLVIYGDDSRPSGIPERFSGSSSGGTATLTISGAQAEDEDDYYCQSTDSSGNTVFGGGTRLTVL ?
4

Moving on to another binder below.
State the recorded scatter score 0-4, MLP29, 9.000 nM for this entry: 76H10 chimeric llama-human IgG1 mAb (antibody, V domains shown, llama VH on human IgG1 CH1-CH2-CH3, llama VL on human lambda CL) VH: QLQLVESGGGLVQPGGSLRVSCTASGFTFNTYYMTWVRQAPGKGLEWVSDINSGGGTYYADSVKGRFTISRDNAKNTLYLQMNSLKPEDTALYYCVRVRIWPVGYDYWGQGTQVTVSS VL: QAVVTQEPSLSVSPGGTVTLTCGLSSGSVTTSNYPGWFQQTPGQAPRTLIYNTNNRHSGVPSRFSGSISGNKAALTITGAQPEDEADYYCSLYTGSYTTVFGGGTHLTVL
3
